Values from the supplement of paper PMC4466140

Molecular target: AgFus1
Assay: SPOT peptide array binding signal intensity (averaged, normalized) (arbitrary units (background-subtracted, floor 0; scale differs between SH3 domains)); higher = stronger binding of the SH3 domain to the peptide
experimental_readout: SPOT peptide array binding signal intensity
Reply with the value as a number alone.

| binder | readout_number |
| --- | --- |
| RRSKSLPITPKSIFN | 79.5 |

Which SPOT peptide array binding signal intensity value belongs to TKRKRPARLIFYDSK ?
436
